# credit: patent US12624112

Here the recorded Relative activity (%) compared with CNTO7160, KU812-NF-κB reporter is given for each entry.
Molecular target: T1, ST2 on KU812 cells (UniProt Q01638 19-556, limits assumed)
T1 sequence (looked up): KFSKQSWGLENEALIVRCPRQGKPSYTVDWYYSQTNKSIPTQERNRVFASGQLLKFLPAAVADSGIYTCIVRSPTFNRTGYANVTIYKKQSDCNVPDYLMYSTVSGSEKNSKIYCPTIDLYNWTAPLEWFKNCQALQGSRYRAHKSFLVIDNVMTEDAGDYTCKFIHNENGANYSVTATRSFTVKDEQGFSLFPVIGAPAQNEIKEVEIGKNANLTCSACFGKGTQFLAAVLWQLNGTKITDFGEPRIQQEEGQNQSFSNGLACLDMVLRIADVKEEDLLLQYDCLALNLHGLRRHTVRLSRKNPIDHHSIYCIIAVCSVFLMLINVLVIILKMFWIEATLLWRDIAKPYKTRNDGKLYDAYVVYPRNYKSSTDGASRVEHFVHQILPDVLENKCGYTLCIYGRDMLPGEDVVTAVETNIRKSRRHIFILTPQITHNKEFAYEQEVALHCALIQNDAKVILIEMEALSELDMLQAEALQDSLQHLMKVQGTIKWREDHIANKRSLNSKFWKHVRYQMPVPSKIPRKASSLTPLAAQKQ
Assay: cell-based or functional assay
Note: unit % is implicit; provide only the numeric part.

1. 5888-379H1+L2 (antibody, V domains shown, murine antibody) VH: QIQLAQSGPELKKPGETVKISCKASGYTFINYGMNWVKQAPGKDLKWMGWINTYIGEPTYGDNFKGRFAFSLETSASTVYLQINNLKNEDTATYFCAREGDGFAYWGQGTLVTVSA VL: DIVMTQSPPSLSVSVGEKVTMSCKSSQSLLYSGNQNNYLAWYQQKPGQPPKLLIYGASTRESGVPDRFTGSGSGTDFTLTISSVQAEDLAVYYCQNDHSYPYTFGGGTKLEIK	64.2

Provide one value: measured Relative activity (%) compared with CNTO7160, KU812-NF-κB reporter of 5888-357H+L (antibody, V domains shown, murine antibody) VH: QVQLQQSVTELVRPGASVTLSCKASGYRFTDSEMHWVKQTPVHGLEWIGTIDPETGGTVYNQKFKGKAKLTADRSSSTVSMELRSLTSEDSAVYYCTRAFYNDFDDGFAYWGQGTLVTVSA VL: QIVMTQSPAIMSASPGEKVTLTCSASTSVSYMHWYQQKSGTSPKRWIYDTSKLASGVPARFSGSGSGTSYSLTISSMEAEDAATYYCQQWSSNPLTFGAGTKLELK
454

Provide one value: measured Relative activity (%) compared with CNTO7160, KU812-NF-κB reporter of 5888-116H1+L1 (antibody, V domains shown, murine antibody) VH: QVQLQQSGAELVRPGASVTLSCKASGYTFTDSEMYWVRLTPVHGLEWIGAIDPETGDTAFNQKFKGKATLTADKSSSTAYMELRSLTSEDSVVYYCTRAFDNDNDDGFAYWGQGTLVTVSA VL: QIVMTQSPAIMSASPGEKVTMTCSASSSVNYMHWYQQKSGTSPKRWIYDTSKLASGVPARFSGSGSGTSYSLTISSMEAEDAATYYCQQWSSNPLTFGAGTKLELK
122

Provide one value: measured Relative activity (%) compared with CNTO7160, KU812-NF-κB reporter of 5887-537H3+L1 (antibody, V domains shown, murine antibody; also called 5887-537H3H+L1) VH: QVTLKESGPGILQPSQTLSLTCSFSGFSLSTSGMGVGWIRQPSGKGLEWLAHIWWDDVKQYNPALKSRLTISKDTSSSQVFLKSASVDTADTATYYCARIGGDYDYFDFWGQGTTLTVSS VL: DIVLTQSPASLAVSLGQRATISCRASESVEYSGTSLMQWYQQKPGQPPKLLIYVASNVESGVPARFSGSGSGTDFSLNIHPVEEDDIAMYFCQQSRKVPWTFGGGTKLEIK
40.2
